This collection of values is drawn from ChEMBL document CHEMBL3861992.

# assay: Tmax in mouse
# Type: ADME, organism-based
# condition: in vivo
parameter: Tmax (h)
Field format: number, assumed h, no unit text.

stdin: Entry `COc1cc(OCc2ccccn2)ccc1/C=C/c1cc(/C=C/c2ccc3cc[nH]c3c2)[nH]n1` has what Tmax?
stdout: 6

---

# targetOfAssay: Microtubule-associated protein tau (Homo sapiens)
# Sequence (P10636 whole entry, the tested form may be a part): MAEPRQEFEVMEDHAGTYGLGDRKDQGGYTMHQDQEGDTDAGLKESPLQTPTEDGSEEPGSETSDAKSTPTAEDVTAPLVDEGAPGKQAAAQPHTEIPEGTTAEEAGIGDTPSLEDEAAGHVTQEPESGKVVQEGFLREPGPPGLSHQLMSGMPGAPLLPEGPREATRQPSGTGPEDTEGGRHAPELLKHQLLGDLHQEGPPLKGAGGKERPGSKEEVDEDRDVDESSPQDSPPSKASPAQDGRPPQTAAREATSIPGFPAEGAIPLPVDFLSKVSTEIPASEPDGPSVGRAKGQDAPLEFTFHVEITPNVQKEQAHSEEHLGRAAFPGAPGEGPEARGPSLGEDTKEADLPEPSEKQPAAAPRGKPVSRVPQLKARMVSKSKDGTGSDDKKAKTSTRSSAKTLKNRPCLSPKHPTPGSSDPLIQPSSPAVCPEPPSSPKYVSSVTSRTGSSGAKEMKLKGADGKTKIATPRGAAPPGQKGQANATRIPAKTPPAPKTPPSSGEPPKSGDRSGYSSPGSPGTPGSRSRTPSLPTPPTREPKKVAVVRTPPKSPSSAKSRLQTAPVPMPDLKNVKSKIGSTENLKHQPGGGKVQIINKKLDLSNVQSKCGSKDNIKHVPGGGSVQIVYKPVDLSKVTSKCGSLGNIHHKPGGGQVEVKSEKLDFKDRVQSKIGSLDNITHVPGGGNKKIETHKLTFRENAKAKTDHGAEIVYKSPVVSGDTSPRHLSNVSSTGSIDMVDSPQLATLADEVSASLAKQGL
# assay: Inhibition of recombinant human TAU three-repeat microtubule-binding domain aggregation expressed in Escherichia coli after 16 hrs by thioflavin T fluorescence assay
Here the recorded pIC50 is given for each entry.
# pIC50 = -log10(concentration in molar units)

COc1cc(/C=C/C(=O)CC(=O)/C=C/c2cccc(O)c2OC)ccc1O | 6.15
COc1ccc(/C=C/C(=O)CC(=O)/C=C/c2ccc(O)c(OC)c2)cc1O | 6.28

stdin: // query pIC50 value for entry `COc1cc(/C=C/C(=O)CC(=O)/C=C/c2ccc3c(c2)OCO3)ccc1O`
stdout: 5.92

stdin: Request: COc1cc(OCC2CCCO2)ccc1/C=C/C(=O)CC(=O)/C=C/c1ccc2cc[nH]c2c1 (configuration not stated)
stdout: 6.38

stdin: And for `COc1ccc(O)c(/C=C/C(=O)CC(=O)/C=C/c2ccc(O)c(OC)c2)c1` ?
stdout: 6.04

stdin: Now try `COc1cc(OCc2ccccc2)ccc1/C=C/C(=O)CC(=O)/C=C/c1ccc2cc[nH]c2c1` .
stdout: 6.21

---

# targetOfAssay: Amyloid-beta precursor protein (Homo sapiens, UniProt P05067)
# Sequence (P05067 whole entry, the tested form may be a part): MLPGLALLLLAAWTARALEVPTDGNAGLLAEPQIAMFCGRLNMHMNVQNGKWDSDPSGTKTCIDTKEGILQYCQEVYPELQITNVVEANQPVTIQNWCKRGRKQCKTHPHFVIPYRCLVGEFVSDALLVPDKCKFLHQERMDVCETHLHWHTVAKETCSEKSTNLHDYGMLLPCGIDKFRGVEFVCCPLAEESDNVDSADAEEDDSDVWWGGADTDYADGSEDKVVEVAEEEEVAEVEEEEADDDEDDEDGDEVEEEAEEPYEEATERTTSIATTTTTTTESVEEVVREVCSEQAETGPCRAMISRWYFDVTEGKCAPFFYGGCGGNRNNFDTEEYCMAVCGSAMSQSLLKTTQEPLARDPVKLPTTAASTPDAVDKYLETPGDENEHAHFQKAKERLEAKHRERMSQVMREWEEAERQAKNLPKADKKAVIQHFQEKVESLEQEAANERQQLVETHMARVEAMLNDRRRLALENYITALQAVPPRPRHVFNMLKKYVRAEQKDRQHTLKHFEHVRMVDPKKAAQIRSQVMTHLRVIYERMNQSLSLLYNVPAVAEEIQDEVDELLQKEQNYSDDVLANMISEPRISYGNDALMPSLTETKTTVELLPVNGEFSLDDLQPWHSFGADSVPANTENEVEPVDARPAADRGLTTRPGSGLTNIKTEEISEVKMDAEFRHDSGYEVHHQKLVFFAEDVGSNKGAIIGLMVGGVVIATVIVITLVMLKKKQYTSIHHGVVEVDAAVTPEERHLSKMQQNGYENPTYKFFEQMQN
# assay: Inhibition of amyloid beta (1 to 42 residues) (unknown origin) aggregation after 24 hrs by thioflavin T fluorescence assay
parameter: log10 IC50 (log10 of the value in nM)
For clarity, the numbers are log10 values of IC50 expressed in nM.

COc1ccc(/C=C/C(=O)CC(=O)/C=C/c2ccc(O)c(OC)c2)c(O)c1 | 2.97

stdin: Look up log10 IC50: CN(C)c1ccc2nc3ccc(=[N+](C)C)cc-3sc2c1 [METHYLENE BLUE ANHYDROUS]
stdout: 2.70

stdin: Try the molecule `COc1ccc(/C=C/C(=O)CC(=O)/C=C/c2ccc3cc[nH]c3c2)c(OC)c1`
stdout: 2.79

stdin: Continue with `COc1cc(O)ccc1/C=C/C(=O)CC(=O)/C=C/c1ccc2cc[nH]c2c1`
stdout: 2.72

stdin: # repeat for `COc1cc(/C=C/C(=O)CC(=O)/C=C/c2ccco2)ccc1O`
stdout: 2.88

stdin: Quick one: `COc1cc(/C=C/C(=O)CC(=O)/C=C/c2cccc(O)c2OC)ccc1O`
stdout: 3.28

stdin: Further, for `COc1cc(/C=C/C(=O)CC(=O)/C=C/c2ccc3cc[nH]c3c2)ccc1O` ?
stdout: 2.62

---

# targetOfAssay: Amyloid-beta precursor protein (Homo sapiens)
# assay: Inhibition of amyloid beta (1 to 42 residues) (unknown origin) aggregation after 24 hrs by thioflavin T fluorescence assay
Overview of recorded pIC50 for various compounds
Would you please state pIC50, meaning minus log10 of the concentration in mol/L, as a bare number?

Consider the reported pIC50 for these compounds:
COc1cc(/C=C/C(=O)CC(=O)/C=C/c2ccc(O)cc2OC)ccc1O | 6.04
COc1cc(OCc2ccccc2)ccc1/C=C/C(=O)CC(=O)/C=C/c1ccc2cc[nH]c2c1 | 5.27

Below: the item to evaluate.
stdin: Value lookup for pIC50; key = `COc1ccc(O)c(/C=C/C(=O)CC(=O)/C=C/c2ccc(O)c(OC)c2)c1`
stdout: 5.74
